Cited source for all entries: ChEMBL document CHEMBL1125431

Test system: T-24
TEST_METHOD_NOTES: Inhibitory activity against Human T24 bladder carcinoma cells
Assay type: functional, cell-based
Kindly supply the reported IC50 values for the records listed here.

If you can, please state the reported IC50 value of C#CCNCC(O)CON (stereo not drawn) .
> 230 µM

If you can, please state the reported IC50 value of CNCC(O)CON (stereo not drawn) .
> 33.3 µM

If you can, please state the reported IC50 value of CN(C)CC(O)CON (stereo not drawn) .
> 36.6 µM
